test system: BT-549 cells; experiment: MTT cell viability assay; type: cell-based, human; settings: Homo sapiens, BT-549, 72 h, 10%FBS growth media
assay-readout: IC50

[[record]]
compound = "COc1ccc(C2=CC(O)(c3ccc([N+](=O)[O-])cc3)N(Cc3ccccc3)C2=O)cc1 (stereo not shown)"
result = "6.23 µM"

[[record]]
compound = "COc1ccccc1C1=CC(O)(c2ccc([N+](=O)[O-])cc2)N(Cc2ccccc2)C1=O (stereo not shown)"
result = "> 10 µM"

[[record]]
compound = "COc1ccc(C2=CC(O)(c3ccccc3)N(C3CCCCC3)C2=O)cc1F (stereo not shown)"
result = "> 10 µM"

[[record]]
compound = "Cc1ccc(C2=CC(O)(c3ccccc3)N(Cc3ccccc3)C2=O)cc1C (stereo not shown)"
result = "4.89 µM"

[[record]]
compound = "COc1cccc2c1C(=O)c1c(O)c3c(c(O)c1C2=O)C[C@@](O)(C(=O)CO)C[C@@H]3O[C@H]1C[C@H](N)[C@H](O)[C@H](C)O1 [DOXO, doxorubicin, reference compound]"
result = "0.19 µM"

[[record]]
compound = "COc1ccc(N2C(=O)C(c3ccccc3)=CC2(O)c2ccc(OC)cc2)cc1 (stereo not shown)"
result = "> 10 µM"

[[record]]
compound = "O=C1C(c2ccc([N+](=O)[O-])cc2)=CC(O)(c2ccccc2)N1Cc1ccccc1 (stereo not shown)"
result = "4.19 µM"


====

system: MCF-7 cells; assay: MTT cell viability assay; type: cell-based, human; conditions: Homo sapiens, MCF7, 72 h, 10%FBS growth media
assay-readout: IC50 (µM)

[[record]]
compound = "O=C1C(c2ccc3c(c2)OCO3)=CC(O)(c2ccccc2)N1Cc1ccccc1 (centres unmarked)"
sign_qualifier = ">"
quantitative_readout = 10

[[record]]
compound = "COc1ccc(C2=CC(O)(c3ccccc3)N(C3CCCCC3)C2=O)cc1F (centres unmarked)"
sign_qualifier = ">"
quantitative_readout = 10

[[record]]
compound = "O=C1C(c2ccccc2)=CC(O)(c2ccccc2)N1C1CCCCC1 (centres unmarked)"
sign_qualifier = ">"
quantitative_readout = 10

[[record]]
compound = "COc1ccccc1C1=CC(O)(c2ccc([N+](=O)[O-])cc2)N(Cc2ccccc2)C1=O (centres unmarked)"
sign_qualifier = "="
quantitative_readout = 3.47

[[record]]
compound = "COc1ccc(N2C(=O)C(c3cccc([N+](=O)[O-])c3)=CC2(O)c2cccc(OC)c2)cc1 (centres unmarked)"
sign_qualifier = ">"
quantitative_readout = 10

[[record]]
compound = "Cc1ccc(C2=CC(O)(c3ccccc3)N(Cc3ccccc3)C2=O)cc1C (centres unmarked)"
sign_qualifier = "="
quantitative_readout = 2.54

[[record]]
compound = "COc1cccc2c1C(=O)c1c(O)c3c(c(O)c1C2=O)C[C@@](O)(C(=O)CO)C[C@@H]3O[C@H]1C[C@H](N)[C@H](O)[C@H](C)O1 [DOXO, doxorubicin, reference compound]"
sign_qualifier = "="
quantitative_readout = 0.07

[[record]]
compound = "COc1ccc(C2=CC(O)(c3ccc([N+](=O)[O-])cc3)N(Cc3ccccc3)C2=O)cc1 (centres unmarked)"
sign_qualifier = "="
quantitative_readout = 6.54


====

tested on: T47D estrogen-depleted cells; experiment: E2-induced proliferation of estrogen-depleted cells (AUC of growth kinetics); assay type: cell-based; conditions: presence of E2 (0.1 nM), 10 days
assay-readout: IC50

[[record]]
molecule = "C[C@]12CC[C@@H]3c4ccc(O)cc4C[C@@H](CCCCCCCCC[S+]([O-])CCCC(F)(F)C(F)(F)F)[C@H]3[C@@H]1CC[C@@H]2O (stereo partly shown) [ICI, ICI-182,780, reference compound]"
result = "0.283 nM"

